System: Fibroblast
Assay: Multiplex assay against human fibroblast
Type: toxicity, cell-based
Conditions: 48 h, 10 µM, compound concentration 10 uM, replicate 1
Population Apoptotic (%) values, listed per item

Reference set (3 entries):
[[record]]
chemical_string = "CCCC(CCC)C(=O)O"
system_name = "Fibroblast"
result = "60%"

[[record]]
chemical_string = "O=C1COc2nccc(-c3ccccc3F)c2CN1Cc1cc(C(F)(F)F)cc(C(F)(F)F)c1"
system_name = "Fibroblast"
result = "72%"

[[record]]
chemical_string = "CC1(COc2ccc3c(c2)ncn3-c2ccc3cccc(N4CCC(N)CC4)c3n2)COC1"
system_name = "Fibroblast"
result = "42%"


Here is another compound to look at.
IN: What does the record list as Population Apoptotic (%) for CN(C)c1ccnc2sc3c(=O)n(N4CCCCCC4)cnc3c12 ?
OUT: 73%

* * *

Tested on: U2OS
Experiment: Multiplex assay against U2OS
Assay type: toxicity, cell-based
Conditions: human, 24 h, 1 µM, compound concentration 1 uM, replicate 1
RESULT TYPE: Population Apoptotic (%)
Respond numerically; units are % and should not be typed.

Below are worked cases with known answers.
[[record]]
molecule = "Cc1ccccc1C(=O)Nc1ccc(C(=O)N2CCCC(N(C)C)c3ccccc32)cc1.Cl (centres undefined)"
numeric_value = 88

[[record]]
molecule = "CN(C)c1ccnc2sc3c(=O)n(N4CCCCCC4)cnc3c12"
numeric_value = 87

[[record]]
molecule = "c1cc(OCCCN2CCCCC2)ccc1CN1CCCCC1"
numeric_value = 84

[[record]]
molecule = "O=S(=O)(c1ccccc1)c1cnc2c(N3CCNCC3)cccc2c1 [INTEPIRDINE]"
numeric_value = 80

[[record]]
molecule = "CSCC[C@H](NC=O)C(=O)N[C@@H](CC(C)C)C(=O)N[C@@H](Cc1ccccc1)C(=O)O"
numeric_value = 91


IN: So what's the measured Population Apoptotic (%) for this one? CC1(COc2ccc3c(c2)ncn3-c2ccc3cccc(N4CCC(N)CC4)c3n2)COC1
OUT: 71

IN: Data request, read-out Population Apoptotic (%), for O=C(NCC(=O)N1CC[C@H](N[C@H]2CC[C@@](O)(c3ccc(-c4ncccn4)cn3)CC2)C1)c1cccc(C(F)(F)F)c1
OUT: 80

IN: // Population Apoptotic (%) lookup, key: CCCC(CCC)C(=O)O
OUT: 84

IN: Query: Population Apoptotic (%); subject: Cc1ccc(C(C)(O)c2nc3ccccc3s2)c(C)c1 (centres undefined)
OUT: 92

* * *

System: U2OS
Assay: Multiplex assay against U2OS
Format: toxicity, cell-based
Settings: human, 48 h, 1 µM, compound concentration 1 uM, replicate 1
RESULT TYPE: Population Normal (%)
# output: bare number, implied unit %

These recorded examples may help you get a feel for the data.
[[record]]
molecule = "CNC[C@H](O)c1ccc(O)c(O)c1 [EPINEPHRINE]"
numeric_value = 99

[[record]]
molecule = "CN(C)CCCc1cc(C(=O)Nc2ccc(-c3ccncc3)cc2)ccc1O.Cl.Cl"
numeric_value = 96

[[record]]
molecule = "N[C@@]1(C(=O)O)CO[C@H]2[C@H](C(=O)O)[C@H]21 [LY-379268]"
numeric_value = 98

[[record]]
molecule = "CN(C)c1ccnc2sc3c(=O)n(N4CCCCCC4)cnc3c12"
numeric_value = 97


Query molecule follows.
IN: Returns the measured Population Normal (%) for the input molecule. Input: C[C@H]1[C@H]2CC[C@H]3[C@@H]4CC=C5C[C@@H](N(C)C)CC[C@]5(C)[C@H]4CC[C@]23CN1C [CONESSINE]
OUT: 97
